- Test details: qHTS of pediatric cancer cell lines to identify multiple opportunities for drug repurposing: Primary screen for NB-EBc1 cells (AID 1347095); further: potency means the concentration at half of the fitted maximal effect
- Experimental setup: NB-EBc1 neuroblastoma viability, CellTiter-Glo luminescence, 48 h; series mostly up to 46 µM
Inconclusive results are not listed. Active and inactive are the calls of the source. The call rests on the fitted dose curve; in most records, active means well fitted cell-killing curve with a large enough effect; inconclusive means small, poorly fitted or top-dose-only effect; inactive means no such curve, though single readings can be large or run the other way.
Observation type: Potency

In the examples that follow, each entry is paired with its recorded Potency.
{"Smiles code": "C[C@@H](Oc1cc(-n2cnc3ccc(CN4CCN(C)CC4)cc32)sc1C(N)=O)c1ccccc1C(F)(F)F", "Potency": "46.9 nM (active)"}
{"Smiles code": "CC[C@@]1(O)C(=O)OCc2c1cc1n(c2=O)Cc2cc3cc(O)ccc3nc2-1", "Potency": "11.8 nM (active)"}
{"Smiles code": "O=C(O)CO.[NH2-].[NH2-].[Pt+2]", "Potency": "inactive"}
{"Smiles code": "COc1cc2c(Oc3ccc4[nH]c(C)cc4c3F)ncnc2cc1OCCCN1CCCC1", "Potency": "4180 nM (active)"}
{"Smiles code": "COc1cccc(Nc2c(C(N)=O)cnc3c(C)cc(S(=O)(=O)c4cccc(C(=O)N(C)C)c4)cc23)c1", "Potency": "inactive"}
{"Smiles code": "Cc1ccc(CN2CCNCC2)cc1NC(=O)CNc1ccc(F)c(F)c1", "Potency": "inactive"}
{"Smiles code": "O=c1c2ccccc2nc2n1CCc1c-2[nH]c2ccccc12", "Potency": "inactive"}
{"Smiles code": "CC=CC1=C(C(=O)O)N2C(=O)[C@H](NC(=O)[C@H](N)c3ccc(O)cc3)[C@@H]2SC1", "Potency": "inactive"}

GET /value?item= Cc1ccc(C(=O)Nc2cccc(C(F)(F)F)c2)cc1-c1ccc2nc(NCCN3CCOCC3)ncc2c1 &field=Potency returns 3720 nM (active)

GET /value?item= CC(C)c1cc(C(=O)N2Cc3ccc(CN4CCN(C)CC4)cc3C2)c(O)cc1O &field=Potency returns 132 nM (active)

* * *

- Test details: Primary qHTS for inhibitors of nuclear receptor binding SET domain protein 2 (NSD2) in an isogenic RCH-ACV NSD2 p.E1099K mutant (9B) (AID 1645876); further: nearly all actives have a fitted effect of over 70% in size; further: potency means the concentration at half of the fitted maximal effect
- Experimental setup: RCH-ACV (leukaemia line) NSD2 E1099K (9B) viability, CellTiter-Glo, 72 h; series mostly up to 44.9 µM
Records with an inconclusive call do not appear. Activity calls are given as the source filed them. Calls follow the shape of the dose curve; as a rule, active = well fitted inhibition curve with a large enough effect; inconclusive = small, poorly fitted or top-dose-only effect; inactive = flat fitted curve, though single readings scatter.
Observation type: Potency

In the examples that follow, each entry is paired with its recorded Potency.
{"Smiles code": "CC[C@@]1(O)C(=O)OCc2c1cc1n(c2=O)Cc2cc3cc(O)ccc3nc2-1", "Observation type": "Potency", "Result value": "0.0209 µM (active)"}
{"Smiles code": "COc1cccc2c(NCc3ccccc3)nc(-n3c(N)nc4ccccc43)nc12", "Observation type": "Potency", "Result value": "8.33 µM (active)"}
{"Smiles code": "COc1ccc(-n2nc(C(N)=O)c3c2C(=O)N(c2ccc(N4CCCCC4=O)cc2)CC3)cc1", "Observation type": "Potency", "Result value": "inactive"}
{"Smiles code": "CC(=O)Nc1nc(C)c(-c2ccc(Cl)c(S(=O)(=O)NCCO)c2)s1", "Observation type": "Potency", "Result value": "1.32 µM (active)"}
{"Smiles code": "CC[C@@H]1C(=O)N(C)c2cnc(Nc3ccc(C(=O)NC4CCN(C)CC4)cc3OC)nc2N1C1CCCC1", "Observation type": "Potency", "Result value": "0.0372 µM (active)"}
{"Smiles code": "CCCn1c(=O)c2[nH]c(-c3cnn(Cc4cccc(C(F)(F)F)c4)c3)nc2n(CC)c1=O", "Observation type": "Potency", "Result value": "inactive"}
{"Smiles code": "O=C(O)CCCc1c[nH]c2ccccc12", "Observation type": "Potency", "Result value": "inactive"}
{"Smiles code": "Cc1cn2c(-c3cn[nH]c3)cnc2c(Nc2ccc(C(=O)N3CCNCC3)cc2F)n1", "Observation type": "Potency", "Result value": "9.16 µM (active)"}

Field: next compound
GET /value?item= COC(=O)Nc1ccc(-c2nc(N3CCOCC3)c3cnn(C4CCN(Cc5cccnc5)CC4)c3n2)cc1 &field=Potency returns 0.833 µM (active)

* * *

- Test details: qHTS for identification of novel therapeutic agents for treatment of microphthalmiaassociated transcription factor (MiT) renal cell carcinoma (RCC) (AID 1963991);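 further: curves scaled with 100% = DMSO viability and 0% = empty wells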
- Experimental setup: TFE3-RCC viability, CellTiter-Glo, 48 h; measured here: UOK124 Z-AUC; stronger effect = lower value
Results filed as inconclusive are left out.
Parameter z-score: see the listing below.
Hey, just send me the number, nothing else.

In the examples that follow, each entry is paired with its recorded z-score.
{"Compound": "O=C(O)[C@H](Cc1c[nH]c2ccccc12)N1C(=O)c2ccccc2C1=O", "z-score": 0.462}
{"Compound": "O=C1CCC[C@@H]2[C@H]3CCC[N+]4([O-])CCC[C@@H](CN12)[C@@H]34 (stereo partly drawn)", "z-score": 0.251}
{"Compound": "CCn1nnc2c(N3CCOCC3)nc(-c3ccc(NC(=O)Nc4ccc(C(=O)N5CCN(C)CC5)cc4)cc3)nc21", "z-score": -1.68}

GET /value?item= COC(=O)Nc1nc2ccc(C(=O)c3ccc(F)cc3)cc2[nH]1 &field=z-score returns -1.2

GET /value?item= Nc1ccn([C@@H]2CS[C@H](CO)O2)c(=O)n1 &field=z-score returns 0.923

GET /value?item= O=C(O)Cn1nnc(-c2cc(N3CCC(Oc4cc(F)ccc4Br)CC3)no2)n1 &field=z-score returns 0.371

GET /value?item= CN(C)c1nc(Cc2ccc(NC(=O)c3ccc4ccccc4c3)cc2)nc(Cl)c1CC(=O)O &field=z-score returns 0.693

GET /value?item= CC(C)c1cc(-c2n[nH]c(=O)n2-c2ccc3c(ccn3C)c2)c(O)cc1O &field=z-score returns -0.923

GET /value?item= COc1cc(=C2C=c3ccccc3=N2)[nH]c1=Cc1[nH]c(C)cc1C &field=z-score returns -0.978

GET /value?item= Cn1c(CNc2ccc(C(=N)N)cc2)nc2cc(C(=O)N(CCC(=O)O)c3ccccn3)ccc21 &field=z-score returns 1.05

GET /value?item= O=C(c1cncc(Br)c1)N1CCC(N2CCCC2)CC1 &field=z-score returns 0.785

GET /value?item= Nc1cc(C(F)(F)F)c(-c2cc(N3CCOCC3)nc(N3CCOCC3)n2)cn1 &field=z-score returns -0.844

GET /value?item= CC[C@@H]1C(=O)N(C)c2cnc(Nc3ccc(C(=O)NC4CCN(C)CC4)cc3OC)nc2N1C1CCCC1 &field=z-score returns -2.05

* * *

Parameter Potency: see the listing below.
- Test details: Quantitative High-Throughput drug screen in 47 multiple myeloma cell lines against the NCATS MIPE library collection: KMS21BM_JCRB cell viability assay (AID 1918974); further: potency means the concentration at half of the fitted maximal effect
- Experimental setup: ATP luminescence, 48 h
Results filed as inconclusive are left out. Calls of active or inactive are those of the source. Calls come from the whole dose curve; as a rule, active = well fitted cell-killing curve with a large enough effect; inconclusive = small, poorly fitted or top-dose-only effect, or effect the other way; inactive = no such curve, though single readings can be large or run the other way.

In the examples that follow, each entry is paired with its recorded Potency.
{"Smiles code": "Cn1cncc1[C@@](N)(c1ccc(Cl)cc1)c1ccc2c(c1)c(-c1cccc(Cl)c1)cc(=O)n2C", "Result value": "16.6 µM (active)"}
{"Smiles code": "CC(=O)c1c(C)c2cnc(Nc3ccc(N4CCNCC4)cn3)nc2n(C2CCCC2)c1=O", "Result value": "14.8 µM (active)"}
{"Smiles code": "CCC(=C(c1ccccc1)c1ccc(OCCN(C)C)cc1)c1ccccc1", "Result value": "18.7 µM (active)"}

GET /value?item= CN1CCC(CNc2ccc3ncc(-c4cccc(OC(F)(F)F)c4)n3n2)CC1 &field=Potency returns 9.35 µM (active)

GET /value?item= COc1cc2c(cc1-c1c(C)noc1C)ncc1[nH]c(=O)n([C@H](C)c3ccccn3)c12 &field=Potency returns 0.743 µM (active)

* * *

- Test details: Quantitative High-Throughput drug screen in 47 multiple myeloma cell lines against the NCATS MIPE library collection: MOLP8_DSMZ cell viability assay (AID 1918977); further: nearly all actives have a fitted effect of over 45% in size; further: potency means the concentration at half of the fitted maximal effect
- Experimental setup: MOLP8 myeloma viability, CellTiter-Glo ATP luminescence, 48 h; series mostly up to 45.8 µM
Records with an inconclusive call do not appear. Activity calls are given as the source filed them. Calls follow the shape of the dose curve; as a rule, active = well fitted cell-killing curve with a large enough effect; inconclusive = small, poorly fitted or top-dose-only effect, or effect the other way; inactive = no such curve, though single readings can be large or run the other way.
Observation type: Potency

In the examples that follow, each entry is paired with its recorded Potency.
{"Compound": "O=C(O)CCCc1c[nH]c2ccccc12", "Result value": "inactive"}
{"Compound": "Cc1ccc(S(=O)(=O)Nc2cc(Cl)ccc2C(=O)Nc2nc(-c3ccccc3)cs2)cc1", "Result value": "20.9 µM (active)"}
{"Compound": "O=C(CCCCCCC(=O)Nc1ccc([C@H]2O[C@@H](CSc3nc(-c4ccccc4)c(-c4ccccc4)o3)C[C@@H](c3ccc(CO)cc3)O2)cc1)NO", "Result value": "14.8 µM (active)"}
{"Compound": "Cc1cc(Nc2cc(CN3CCOCC3)c3nc(C)c(Cc4ccc(Cl)cc4F)n3n2)n[nH]1", "Result value": "20.9 µM (active)"}
{"Compound": "COc1ccc(F)c(F)c1C(=O)c1cnc(NC2CCN(S(C)(=O)=O)CC2)nc1N", "Result value": "1.32 µM (active)"}

GET /value?item= O=C(O)c1ccc2cc(-c3ccc(O)c(C45CC6CC(CC(C6)C4)C5)c3)ccc2c1 &field=Potency returns 1.32 µM (active)

GET /value?item= COc1ccc(-c2cc3c(C)nc(N)nc3n(C3CCC(OCCO)CC3)c2=O)cn1 (stereo not drawn) &field=Potency returns 0.0372 µM (active)

GET /value?item= Cc1ccc(C(=O)Nc2ccc(CN3CCN(C)CC3)c(C(F)(F)F)c2)cc1C#Cc1cnc2cccnn12 &field=Potency returns 0.833 µM (active)

GET /value?item= C=CC(=O)Nc1cc2c(Nc3ccc(F)c(Cl)c3)ncnc2cc1OCCCN1CCOCC1 &field=Potency returns 8.33 µM (active)

GET /value?item= COc1cccc2c(NCc3ccccc3)nc(-n3c(N)nc4ccccc43)nc12 &field=Potency returns 3.32 µM (active)

GET /value?item= Nc1nc(-c2nn(Cc3ccccc3F)c3ncccc23)nc(N)c1N1CCOCC1 &field=Potency returns inactive

GET /value?item= O=C(Nc1cn[nH]c1-c1nc2ccc(CN3CCOCC3)cc2[nH]1)NC1CC1 &field=Potency returns 2.64 µM (active)

GET /value?item= COc1c(OCCCN2CCOCC2)ccc2c3n(c(=NC(=O)c4cnc(N)nc4)nc12)CCN3 &field=Potency returns 0.0288 µM (active)

src = PubChem BioAssay (NCATS)
